- Tested On: T1, C3d (UniProt P01024 1002-1303, limits assumed)
- T1 construct: domain: C3d
- T1 sequence (P01024 1002-1303 limits assumed): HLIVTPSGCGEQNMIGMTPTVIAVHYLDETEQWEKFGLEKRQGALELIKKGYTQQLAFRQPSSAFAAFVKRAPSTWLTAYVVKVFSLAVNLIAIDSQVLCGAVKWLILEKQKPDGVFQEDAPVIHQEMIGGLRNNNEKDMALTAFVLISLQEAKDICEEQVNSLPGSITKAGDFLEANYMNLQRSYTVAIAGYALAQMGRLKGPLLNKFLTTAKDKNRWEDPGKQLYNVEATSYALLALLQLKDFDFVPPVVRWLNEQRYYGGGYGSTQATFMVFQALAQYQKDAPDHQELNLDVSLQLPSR
- Method Description: binding screen of Example 5; method and unit not stated
Observed Property: binding relative to negative control mIgG2
Give bare numbers.

{"Binder": "antibody 3D8 (antibody, V domains shown, Mouse hybridoma antibody raised against human C3) VH: EIQLQQSGAELVKPGASVKISCKASGYSFTGYNMNWVKQSHGKSLEWIGNINPYYGSTNYNQKFKGKATLTVDKSSTTAYMQLDSLTSEDSAVYYCARGYYGGNYPFAYWGQGTLVTVSA VL: DIQMTQSPASLSASVGETVTITCRASENIYSYLAWYQQKQGKSPQLLVYNAKTLAEGVPSRFSGSGSGTQFSLKINSLQPEDFGSYYCQHYYGTPYTFGGGSKVEIK", "Reported Measurement": 0.01}
{"Binder": "antibody 62B11 (antibody, V domains shown, Mouse hybridoma antibody) VH: EVKLVESGGGLVQPGGSLKLSCAASGFTFSSYTMSWVRQTPEKRLEWVAYISSGGGTTYYPDTVKGRFTVSRDNAKNTLYLQMSSLRSEDTAMYSCARRYYRGSSLWYFDVWGAGTTVTVSS VL: DIVMTQSPSSLTVTAGEKVTMSCKSSQSLFNSGSQKNFLTWYQQRPGQPPKLLIYWASTRESGVPDRFTGSGSGTDFTLTISSVQAEDLAVYYCQNDYSYPLTFGAGTKLELK", "Reported Measurement": -0.02}

Now look at this one.
GET /values?readout=binding relative to negative control mIgG2&item= antibody 38F5 (antibody, V domains shown, Mouse hybridoma antibody) VH: EVMLVESGGALVKPGGSLKLSCTASGFTFSNYAMSWVRQTPEKRLEWVAQTISSGGRYTYYPDSVKGRFTISRDNARNTLYLQMSSLRSEDTAMYYCVRRYYGNSYWYFDVWGAGTTVTVSS VL: DIVMTQSPSSLSVSAGEKVTMNCKSSQSLLNSGNQKHYLTWYQQKPGQPPKLLIYGASTRGSGVPDRFTGSGSGTDFTLTISSVQAEDLAVYYCQNDHSYPYTFGGGTKLEIK 0.01
